target: hGARP-proTGFβ1 complex on cells (human, UniProt Q14392 20-662; P01137 30-390); assay: cell-based or functional assay
Sequence (Q14392 20-662 limits assumed, chain 1 of 2): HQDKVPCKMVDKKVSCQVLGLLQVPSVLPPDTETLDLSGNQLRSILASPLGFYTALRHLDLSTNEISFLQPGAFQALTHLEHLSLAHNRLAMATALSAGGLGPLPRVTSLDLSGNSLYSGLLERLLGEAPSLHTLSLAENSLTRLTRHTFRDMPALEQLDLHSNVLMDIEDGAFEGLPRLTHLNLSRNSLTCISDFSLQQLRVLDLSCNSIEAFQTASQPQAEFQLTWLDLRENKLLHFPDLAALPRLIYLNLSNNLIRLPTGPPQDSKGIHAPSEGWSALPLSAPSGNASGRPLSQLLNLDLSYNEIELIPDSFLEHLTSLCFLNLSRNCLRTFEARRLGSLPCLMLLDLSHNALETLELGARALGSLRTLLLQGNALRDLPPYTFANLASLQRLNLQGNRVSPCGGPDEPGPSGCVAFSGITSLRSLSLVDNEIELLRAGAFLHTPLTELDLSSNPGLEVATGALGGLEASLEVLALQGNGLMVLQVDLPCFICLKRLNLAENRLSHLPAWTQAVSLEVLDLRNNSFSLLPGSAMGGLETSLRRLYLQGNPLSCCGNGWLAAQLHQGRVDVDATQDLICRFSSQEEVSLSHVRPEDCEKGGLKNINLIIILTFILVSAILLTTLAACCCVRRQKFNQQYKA
Sequence (P01137 30-390 limits assumed, chain 2 of 2): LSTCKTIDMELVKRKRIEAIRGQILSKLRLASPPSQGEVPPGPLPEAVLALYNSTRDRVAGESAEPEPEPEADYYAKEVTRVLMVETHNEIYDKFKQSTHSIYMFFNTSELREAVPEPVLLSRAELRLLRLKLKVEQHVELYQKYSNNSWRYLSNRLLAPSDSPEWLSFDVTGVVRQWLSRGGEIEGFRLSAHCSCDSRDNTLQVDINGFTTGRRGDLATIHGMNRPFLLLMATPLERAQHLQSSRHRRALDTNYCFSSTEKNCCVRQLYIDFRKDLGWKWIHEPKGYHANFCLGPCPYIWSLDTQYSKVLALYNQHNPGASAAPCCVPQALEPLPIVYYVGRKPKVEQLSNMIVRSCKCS
outcome-measure: IC50, reporter cell assay of TGFβ1 activation (nM)
Your answer should be a plain number; it is taken to be in nM.

Query: Give the measured IC50, reporter cell assay of TGFβ1 activation of Ab12 (antibody, IgG4, V domains shown) VH: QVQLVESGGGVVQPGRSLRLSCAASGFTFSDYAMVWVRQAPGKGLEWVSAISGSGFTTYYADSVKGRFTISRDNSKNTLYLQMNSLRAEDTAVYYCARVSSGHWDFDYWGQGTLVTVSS VL: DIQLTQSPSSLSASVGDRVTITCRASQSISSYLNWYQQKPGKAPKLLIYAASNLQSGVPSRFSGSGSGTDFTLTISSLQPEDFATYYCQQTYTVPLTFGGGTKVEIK .
Reply: 1.08

Measured values drawn from patent US20220064275A1 for this set.
